- target under test: CrufCSP1
- test details: Binding of fluorescent probe 1-NPN to recombinant CrufCSP1 (Scatchard plot)
- run conditions: CrufCSP1 2 μM titrated with 1-NPN 2 to 20 μM, read-out: dissociation constant toward 1-NPN
outcome measure: pKd
Please report pKd as the negative decimal logarithm of the molar concentration, giving only the number.

Query: Reported pKd, compound c1ccc(Nc2cccc3ccccc23)cc1 : ____
Result: 5.12

====

- target under test: CrufCSP1
- test details: Fluorescence competitive binding assay with 1-NPN as probe
- Design: species or system Cotesia ruficrus
- run conditions: calculated from IC50: Ki=[IC50]/(1+[1-NPN]/K1-NPN); CrufCSP1 2 μM, 1-NPN 2 μM; listed as N,N-dimethylcaprylamide
outcome measure: Ki

Query: // lookup Ki | system=CrufCSP1 | key= CCCCCCCC(=O)N(C)C [N,N-Dimethylcaprylamide]
Result: < 20 µM
